System Tested: T1, human TL1A extracellular domain with N-terminal HIS and FLAG tag (human, UniProt O95150 72-251)
T1 construct: whole entry named. ~70 kDa fraction purified by gel filtration
T1 sequence: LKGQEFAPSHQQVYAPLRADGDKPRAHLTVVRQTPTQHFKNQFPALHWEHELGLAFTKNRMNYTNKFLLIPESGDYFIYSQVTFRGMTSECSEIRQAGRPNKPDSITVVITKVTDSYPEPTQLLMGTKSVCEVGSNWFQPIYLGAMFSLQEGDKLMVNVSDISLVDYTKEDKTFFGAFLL
Procedure Details: SPR run 3; supernatant on Protein A; TL1A 10 ug/mL; timepoint 590
For each entry below, report its TL1A Binding Level (Late) value.
Unit RU implied. Number only.

[Q] Any idea what TL1A Binding Level (Late) was measured for 320-310 (antibody, human IgG1, name in Kabat numbering, V domains shown, human IgG1, lambda) VH: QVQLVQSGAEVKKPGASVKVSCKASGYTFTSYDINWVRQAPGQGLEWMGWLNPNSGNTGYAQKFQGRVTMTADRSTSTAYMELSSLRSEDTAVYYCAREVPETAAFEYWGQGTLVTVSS VL: QSVLTQPPSVSGAPGQRVTISCTSSSSDIGAGLGVHWYQQLPGTAPKLLIEGYYNRPSGVPDRFSGSKSGTSASLTITGLLPEDEGDYYCASYDGTLSALFGGGTKLTVLG ?
[A] 62

[Q] Entry 320-261 (antibody, human IgG1, name in Kabat numbering, V domains shown, human IgG1, lambda) VH: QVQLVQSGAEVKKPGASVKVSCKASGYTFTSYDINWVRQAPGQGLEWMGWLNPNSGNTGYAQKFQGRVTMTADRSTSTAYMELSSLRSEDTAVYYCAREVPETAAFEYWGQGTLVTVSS VL: QSVLTQPPSVSGAPGQRVTISCTSSSSDIGDGLGVHWYQQLPGTAPKLLIEGYYNRPSGVPDRFSGSKSGTSASLTITGLLPEDEGDYYCQSYDGTLSALFGGGTKLTVLG please
[A] 29
